meta.source: PubChem BioAssay AID652054

The reader will find reported max response, negative = inhibition values listed item by item below.
# TARGET OR SYSTEM: D(3) dopamine receptor (Homo sapiens)
# ASSAY EXPLANATION: qHTS of D3 Dopamine Receptor Antagonist: qHTS; also: % is scaled to controls: 0 for no effect and ±100 for the full control effect
# CONDITION SET: D3R cells, DiscoveRx beta-arrestin luminescence, antagonist mode; hits give low values
Screen size: about 360,000 compounds; about 9,100 (2.5%) were called active. About 4% were inconclusive and are not listed. Only a selection was taken, and actives are over-represented in it overall.

# MOLECULE, TARGET OR SYSTEM, max response, negative = inhibition, %
measured = [
    ("COc1ccc(CCNS(=O)(=O)c2cccc([N+](=O)[O-])c2)cc1", "D(3) dopamine receptor (Homo sapiens)", -20.3),
    ("C/C(=N\\NS(=O)(=O)c1cccc([N+](=O)[O-])c1)c1cc2ccccc2o1", "D(3) dopamine receptor (Homo sapiens)", -65.1),
    ("COc1ccc(Cl)cc1NC(=O)CN(C)C(=O)c1cn(-c2ccccc2)nc1-c1cccs1", "D(3) dopamine receptor (Homo sapiens)", 0.189),
    ("CCOC(=O)C1CCCCN1Cc1ccc(OC)c(OC)c1OC (stereo not given)", "D(3) dopamine receptor (Homo sapiens)", -50.5),
    ("COc1ccccc1Cc1c(-c2ccc(Cl)cc2)nc2ccc(Cl)cn12", "D(3) dopamine receptor (Homo sapiens)", 6.17),
]
